- Test system: giant foxtail (Setaria faberii)
- experimentSummary: Test A preemergence
- Format: in vivo
- conditionInfo: Setaria faberi, pre-emergence, 240 h, 31 g ai/ha, Preemergence; 0 to 100 scale where 0 is no effect and 100 is complete control; read-out: Foxtail, Giant plant response rating
measuredQuantity: pest or weed control at 31 g/ha (%)
Only the number, expressed in %, is required.

CN1C[C@H](c2csc3c2CCOC3)[C@@H](C(=O)Nc2cccc(F)c2F)C1=O	70
CN1C[C@H](c2cc(C(F)F)cs2)[C@@H](C(=O)Nc2cccc(F)n2)C1=O	60

Field: pest or weed control at 31 g/ha (giant foxtail (Setaria faberii)). Entry: CN1CC[C@H](c2ccc3c(c2)OC(F)(F)O3)[C@@H](C(=O)Nc2cccc(Cl)c2F)C1=O
80

Field: pest or weed control at 31 g/ha (giant foxtail (Setaria faberii)). Entry: CN1C[C@H](c2ccc(C(F)(F)F)cc2)[C@@H](C(=O)Nc2cnccc2C(F)(F)F)C1=O
90

Field: pest or weed control at 31 g/ha (giant foxtail (Setaria faberii)). Entry: CN1C[C@H](c2ccc(Cl)cc2)[C@@H](C(=O)Nc2cccc(F)n2)C1=O
90

Field: pest or weed control at 31 g/ha (giant foxtail (Setaria faberii)). Entry: O=C1NC[C@H](c2ccc(F)c(Oc3ccccc3)c2)[C@H]1C(=O)Nc1cccc(F)c1F
40

Field: pest or weed control at 31 g/ha (giant foxtail (Setaria faberii)). Entry: COc1ccc([C@H]2CNC(=O)[C@@H]2C(=O)Nc2cccc(F)c2F)cc1
10

Field: pest or weed control at 31 g/ha (giant foxtail (Setaria faberii)). Entry: C=C(C)c1cccc([C@H]2CN(C)C(=O)[C@@H]2C(=O)Nc2cccc(F)c2C)c1
90
